- Method Summary: soluble on expression in E. coli; label from the status in PepcDB or PDB records

| Macromolecule Sequence | soluble on expression in E. coli |
| --- | --- |
| MDTNSLLSAGSDMAKAANLSDADIIQLSDAACKQSDQESKIAPAGNKYSVRLTKLMRGFGNMTLNGQKVNYKVYMTEDVNAWAMGNGCVRVYTGLMDLMNDDELRGVIGHEMGHVALGHTKKAMQTAYAVSAARQAAGAAGNSVVASLSASQLGEMTEKFINAQFSQSQETAADDFSFDLLTEKKMNRKGLVTAFQKLAELDGGESSMFSSHPSSPDRAARMEKRLQAGKLEHHHHHH | soluble |
| MSLDKIKAVIFDMDGVLIDAKEWHYEALNKALRLFGFEISRYDHLVTFDGLPTAKKLEMMTVERGLPKSLHQLINDMKQIYTMEYVYMKCKPLFVHQYALSRLKSEGFRLALASNSVRVTIDMMMEKADLNQYLDFSLSNQDVKKSKPDPEIYITAINRLGLSPEECLVVEDNQNGVKAALASGANLLKVETINDVTYSNIINRINEIENNIEGHHHHHH | soluble |

FYI, the data here is from the DeepSol protein solubility set.
